Molecular target: human CB2 receptor (Homo sapiens, UniProt P34972)
Construct: expressed in transfected cells
Sequence (P34972 whole entry): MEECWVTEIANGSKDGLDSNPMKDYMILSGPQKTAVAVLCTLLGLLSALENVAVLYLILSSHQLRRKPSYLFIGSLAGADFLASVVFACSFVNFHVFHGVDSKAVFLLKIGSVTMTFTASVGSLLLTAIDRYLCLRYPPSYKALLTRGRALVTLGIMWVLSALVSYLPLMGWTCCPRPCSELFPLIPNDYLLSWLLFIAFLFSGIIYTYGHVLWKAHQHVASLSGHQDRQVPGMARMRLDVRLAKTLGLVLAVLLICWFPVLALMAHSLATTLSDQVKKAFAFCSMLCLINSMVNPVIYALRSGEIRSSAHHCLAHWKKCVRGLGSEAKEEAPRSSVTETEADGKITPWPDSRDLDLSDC
Experiment: Human CB2 receptor binding inhibition test ([3H]CP-55,940, CHO membrane fractions)
Details: [3H]CP-55,940, membrane fractions of CHO cells stably expressing human CB2 receptor, 25° C., 2 hours; read-out: CB2 IC50 (Inhibition of binding to human CB2 receptor)
MEASUREMENT NAME: IC50 (nM)

[[record]]
smiles_str = "Cc1c(C(C)(C)C)s/c(=N\\C(=O)c2cccc([N+](=O)[O-])c2)n1CC1CC1"
endpoint_unit = "nM"
reading = 1.4

[[record]]
smiles_str = "CCOCCn1/c(=N/C(=O)c2cccc(C(F)(F)F)c2C)cc(C(C)(C)C)n1C"
endpoint_unit = "nM"
reading = 6

[[record]]
smiles_str = "CCOCCn1c(C)c(C)s/c1=N\\C(=O)c1cccc(C(F)(F)F)c1F"
endpoint_unit = "nM"
reading = 0.5

[[record]]
smiles_str = "COc1ccc(Cl)cc1C(=O)/N=c1\\sc(C)c(C)n1CC1CC1"
endpoint_unit = "nM"
reading = 3.3

[[record]]
smiles_str = "Cc1cs/c(=N\\C(=O)c2cccc(C(F)(F)F)c2F)n1CC1CC1"
endpoint_unit = "nM"
reading = 4.9


====

MEASUREMENT NAME: melting point

[[record]]
smiles_str = "Cc1c(C(C)(C)C)s/c(=N\\C(=O)c2cccc(C#N)c2)n1C"
reading = "131 to 133 °C"

[[record]]
smiles_str = "CCN(C)c1ccc(C(F)(F)F)cc1C(=O)/N=c1\\sc(C(C)(C)C)c(C)n1CC1CC1"
reading = "101 to 103 °C"

[[record]]
smiles_str = "Cc1c(C(C)(C)C)s/c(=N\\C(=O)c2ccc(F)cc2F)n1CC1CC1"
reading = "111 to 112 °C"

[[record]]
smiles_str = "Cc1c(C(C)(C)C)s/c(=N\\C(=O)c2ccccc2F)n1CC1CC1"
reading = "182 to 183 °C"

[[record]]
smiles_str = "Cc1s/c(=N\\C(=O)c2cccc(C(F)(F)F)c2)n(CC2CC2)c1-c1ccccc1"
reading = "161 to 162 °C"

[[record]]
smiles_str = "CCc1ccccc1C(=O)/N=c1\\sc(C(C)(C)C)c(C)n1CC1CC1"
reading = "120 to 122 °C"

[[record]]
smiles_str = "CC(C)(C)c1c/c(=N\\C(=O)c2cccc(C(F)(F)F)c2F)n(CC2CC2)s1"
reading = "85 to 87 °C"

[[record]]
smiles_str = "COc1cccc(C(=O)/N=c2\\sc(C(C)(C)C)c(C)n2CC2CC2)c1"
reading = "108 to 109 °C"

[[record]]
smiles_str = "CCn1c(C)c(C(C)(C)C)s/c1=N\\C(=O)c1cc(Br)ccc1F"
reading = "105 to 106 °C"

[[record]]
smiles_str = "Cn1c(C(C)(C)C)c/c(=N\\C(=S)Nc2ccc(F)cc2)n1CC1CC1"
reading = "147.5 to 149.5 °C"

[[record]]
smiles_str = "Cc1c(C(C)(C)C)s/c(=N\\C(=O)c2cc(C(F)(F)F)ccc2N2CCC2)n1CC1CC1"
reading = "100 to 102 °C"

[[record]]
smiles_str = "COc1cccc(C(=O)/N=c2\\sc(C(C)(C)C)c(C)n2CC2CC2)c1OC"
reading = "93 to 94 °C"

[[record]]
smiles_str = "CC(C)(C)c1nn(CC2CC2)/c(=N/C(=O)c2cccc(C(F)(F)F)c2F)o1"
reading = "108 to 110 °C"

[[record]]
smiles_str = "CCCCn1cccc/c1=N\\C(=O)c1cccc(C(F)(F)F)c1F"
reading = "51 to 52 °C"

[[record]]
smiles_str = "Cn1c(C(C)(C)C)c/c(=N\\C(=O)c2cccc(OC(F)(F)C(F)F)c2)n1CC1CC1"
reading = "110 to 111 °C"

[[record]]
smiles_str = "Cc1c(C(C)(C)C)n(C)n(CC2CC2)/c1=N/C(=O)c1cccc(C(F)(F)F)c1F"
reading = "149 to 150 °C"

[[record]]
smiles_str = "C=CCn1c(-c2ccccc2)c(-c2ccccc2)s/c1=N\\C(=O)c1ccccc1"
reading = "141 to 143 °C"

[[record]]
smiles_str = "Cc1c(C(C)(C)C)s/c(=N\\C(=O)c2cc(C(F)(F)F)ccc2Cl)n1CC1CC1"
reading = "100 to 102 °C"


====

Target: human CB2 receptor (Homo sapiens)
Construct: expressed in transfected cells
Assay: Human CB2 receptor binding inhibition test ([3H]CP-55,940, CHO membrane fractions)
Conditions: [3H]CP-55,940, membrane fractions of CHO cells stably expressing human CB2 receptor, 25° C., 2 hours; read-out: CB2 IC50 (Inhibition of binding to human CB2 receptor)
MEASUREMENT NAME: IC50 (nM)

[[record]]
smiles_str = "Cc1c(Br)cccc1C(=O)/N=c1\\sc(C(C)(C)C)c(C)n1CC1CC1"
subject_of_test = "human CB2 receptor (Homo sapiens)"
reading = 0.8

[[record]]
smiles_str = "Cc1c(C(C)(C)C)s/c(=N\\C(=O)c2nccc3ccccc23)n1CC1CC1"
subject_of_test = "human CB2 receptor (Homo sapiens)"
reading = 2

[[record]]
smiles_str = "COCCn1c(C)c(C)s/c1=N\\C(=O)c1cccc(C(F)(F)F)c1F"
subject_of_test = "human CB2 receptor (Homo sapiens)"
reading = 1.7

[[record]]
smiles_str = "Cc1c(C(C)(C)C)s/c(=N/C(=O)c2cnccc2C(F)(F)F)n1CC1CC1"
subject_of_test = "human CB2 receptor (Homo sapiens)"
reading = 1.5

[[record]]
smiles_str = "CCCCn1c(C)c(C(C)(C)C)s/c1=N\\S(=O)(=O)c1cccc2ccccc12"
subject_of_test = "human CB2 receptor (Homo sapiens)"
reading = 13.7

[[record]]
smiles_str = "Cc1c(C(C)(C)C)s/c(=N\\C(=O)c2cc3sccc3nc2C(F)(F)F)n1CC1CC1"
subject_of_test = "human CB2 receptor (Homo sapiens)"
reading = 11.8

[[record]]
smiles_str = "Cc1s/c(=N\\C(=O)c2cc(C(F)(F)F)ccc2F)n(CC2CC2)c1C"
subject_of_test = "human CB2 receptor (Homo sapiens)"
reading = 3.9

[[record]]
smiles_str = "COCCn1c(C)c(C(C)(C)C)s/c1=N\\C(=O)c1cc(F)c(Cl)cc1Cl"
subject_of_test = "human CB2 receptor (Homo sapiens)"
reading = 1.9

[[record]]
smiles_str = "CCn1c(C)c(C(C)(C)C)s/c1=N\\C(=O)c1cc(F)ccc1Br"
subject_of_test = "human CB2 receptor (Homo sapiens)"
reading = 4.3

[[record]]
smiles_str = "Cc1cc(Cl)ccc1C(=O)/N=c1\\sc(C(C)(C)C)c(C)n1CC1CC1"
subject_of_test = "human CB2 receptor (Homo sapiens)"
reading = 4

[[record]]
smiles_str = "CCN(C)c1ccc(C(F)(F)F)cc1C(=O)/N=c1\\sc(C(C)(C)C)c(C)n1CC1CC1"
subject_of_test = "human CB2 receptor (Homo sapiens)"
reading = 13.2

[[record]]
smiles_str = "O=C(/N=c1\\ccccn1CC1CCC1)c1cccc(C(F)(F)F)c1F"
subject_of_test = "human CB2 receptor (Homo sapiens)"
reading = 13.3

[[record]]
smiles_str = "CCOc1ccncc1C(=O)/N=c1\\sc(C(C)(C)C)nn1CC1CC1"
subject_of_test = "human CB2 receptor (Homo sapiens)"
reading = 16.9

[[record]]
smiles_str = "Cc1c(C(C)(C)C)s/c(=N\\C(=O)c2c(F)cccc2C(F)(F)F)n1CC1CC1"
subject_of_test = "human CB2 receptor (Homo sapiens)"
reading = 1.1

[[record]]
smiles_str = "Cc1c(C(C)(C)C)s/c(=N\\C(=O)c2cccc(F)c2F)n1CC1CC1"
subject_of_test = "human CB2 receptor (Homo sapiens)"
reading = 11.3

[[record]]
smiles_str = "CCn1c(C)c(C(C)(C)C)s/c1=N\\C(=O)c1cc(Cl)ccc1OC"
subject_of_test = "human CB2 receptor (Homo sapiens)"
reading = 4.6

[[record]]
smiles_str = "Cc1c(C(=O)/N=c2\\cc(C(C)(C)C)n(C)n2CCOC(C)C)cccc1C(F)(F)F"
subject_of_test = "human CB2 receptor (Homo sapiens)"
reading = 2.1

[[record]]
smiles_str = "Cc1c(C(C)(C)C)s/c(=N\\C(=O)c2cc(Cl)ccc2Cl)n1C"
subject_of_test = "human CB2 receptor (Homo sapiens)"
reading = 7.3

[[record]]
smiles_str = "CCn1c(C)c(C(C)(C)C)s/c1=N\\C(=O)c1cc(Br)ccc1F"
subject_of_test = "human CB2 receptor (Homo sapiens)"
reading = 5.9

[[record]]
smiles_str = "CCn1c(C)c(C(C)(C)C)s/c1=N\\C(=O)c1cc(C(F)(F)F)ccc1OC(F)F"
subject_of_test = "human CB2 receptor (Homo sapiens)"
reading = 11.7

[[record]]
smiles_str = "COCCn1c(C)c(C(C)(C)C)s/c1=N\\C(=O)c1cccc(C(F)(F)F)c1"
subject_of_test = "human CB2 receptor (Homo sapiens)"
reading = 12.2

[[record]]
smiles_str = "CCOCCn1c(C)c(C(C)(C)C)s/c1=N\\C(=O)c1cccc(C(F)(F)F)c1"
subject_of_test = "human CB2 receptor (Homo sapiens)"
reading = 2.3

[[record]]
smiles_str = "COc1ccc(F)cc1C(=O)/N=c1\\sc(C(C)(C)C)c(C)n1CC1CC1"
subject_of_test = "human CB2 receptor (Homo sapiens)"
reading = 0.6

[[record]]
smiles_str = "CCn1c(C)c(C(C)(C)C)s/c1=N\\C(=O)c1ccccc1C(F)(F)F"
subject_of_test = "human CB2 receptor (Homo sapiens)"
reading = 3.2

[[record]]
smiles_str = "Cc1c(C(C)(C)C)s/c(=N\\C(=O)c2c(F)cccc2F)n1CC1CC1"
subject_of_test = "human CB2 receptor (Homo sapiens)"
reading = 2

[[record]]
smiles_str = "Cc1c(C(C)(C)C)s/c(=N\\C(=O)c2c(F)ccc(F)c2F)n1C"
subject_of_test = "human CB2 receptor (Homo sapiens)"
reading = 6.8

[[record]]
smiles_str = "Cc1c(C(C)(C)C)s/c(=N\\C(=O)c2ccccc2C(F)(F)F)n1CC1CC1"
subject_of_test = "human CB2 receptor (Homo sapiens)"
reading = 0.5

[[record]]
smiles_str = "O=C(/N=c1\\cc(C(F)(F)F)ccn1CC1CC1)c1cccc(C(F)(F)F)c1F"
subject_of_test = "human CB2 receptor (Homo sapiens)"
reading = 8.6

[[record]]
smiles_str = "Cc1s/c(=N\\C(=O)c2cc(F)ccc2C(F)(F)F)n(CC2CC2)c1C"
subject_of_test = "human CB2 receptor (Homo sapiens)"
reading = 17.6

[[record]]
smiles_str = "Cc1c(C(C)(C)C)s/c(=N\\C(=O)c2cc(C(F)(F)F)ccc2Cl)n1CC1CC1"
subject_of_test = "human CB2 receptor (Homo sapiens)"
reading = 1.3

[[record]]
smiles_str = "COc1ccc(F)cc1C(=O)/N=c1\\sc(C)c(C)n1CC1CC1"
subject_of_test = "human CB2 receptor (Homo sapiens)"
reading = 7.7

[[record]]
smiles_str = "Cc1ccn(CC2CC2)/c(=N/C(=O)c2cccc(C(F)(F)F)c2F)c1"
subject_of_test = "human CB2 receptor (Homo sapiens)"
reading = 8.9

[[record]]
smiles_str = "Cc1cccc(Br)c1C(=O)/N=c1\\oc(C(C)(C)C)c(C)n1CC1CC1"
subject_of_test = "human CB2 receptor (Homo sapiens)"
reading = 5.6

[[record]]
smiles_str = "CCOCCn1/c(=N/C(=O)c2cccc(C)c2Br)cc(C(C)(C)C)n1C"
subject_of_test = "human CB2 receptor (Homo sapiens)"
reading = 9.9

